Each entry below carries its recorded IC50.
Biological target: Full length human recombinant HDAC8 protein (Homo sapiens, UniProt Q9BY41)
Construct: Full length human recombinant HDAC8 protein was expressed in baculoviral system; made in house
Assay: In vitro histone deacetylase assay: enzymatic HDAC8 electrophoretic mobility shift assay
Format: biochemical
Settings: electrophoretic mobility shift assay; enzyme 1 nM; 2 μM fluorescently labeled peptide substrate RHKK(Ac)-NH2; 25° C.; 12 concentrations; read-out: HDAC8 IC50
Method: The enzymatic HDAC8 assay was performed using electrophoretic mobility shift assay. Full length human recombinant HDAC8 protein was expressed in baculoviral system and purified by affinity chromatography. […] The terminated assay plates were analyzed on LabChip® 3000 microfluidic electrophoresis instrument (Perkin Elmer/Caliper Life Sciences). The fluorescence intensity of the electrophoretically separated de-acetylated product and substrate peptide was measured. […]

O=C(NO)c1ccc2c(c1)N(C(=O)N1CC3(CCOCC3)c3ccccc31)CCO2 [Compound I-156]    > 1000 nM
Cc1cccc(CN2C(=O)COc3ccc(C(=O)NO)cc32)c1F [Compound I-74]    < 25 nM
COc1cc(F)c(CN2C(=O)COc3ccc(C(=O)NO)cc32)c(F)c1 [Compound I-248]    < 25 nM
CCCCN1C(=O)COc2ccc(C(=O)NO)cc21 [Compound I-45]    25 to 100 nM
O=C(NO)c1ccc2c(c1)N(Cc1cccc(C(F)(F)F)c1)C(=O)CO2 [Compound I-144]    < 25 nM
COc1ccc(CN2C(=O)[C@@H](C)Oc3ccc(C(=O)NO)cc32)cc1 (single isomer, unassigned) [Compound I-162]    25 to 100 nM
O=C(NO)c1ccc2c(c1)N(Cc1ccccn1)C(=O)CO2 [Compound I-61]    100 to 1000 nM
Cc1ccc(C(F)(F)F)cc1CN1C(=O)COc2ccc(C(=O)NO)cc21 [Compound I-72]    < 25 nM
COc1ccc(CN2C(=O)C(C)(C)Oc3ccc(C(=O)NO)cc32)c(F)c1 [Compound I-160]    < 25 nM
CN1CC(C(=O)N2CC3(CC3)c3ccccc32)Oc2cc(C(=O)NO)ccc21 (centres unmarked) [Compound I-9]    < 25 nM

Supply IC50 value. Item: CN1CC(C(=O)NC2CCOCC2)Oc2cc(C(=O)NO)ccc21 (centres unmarked) [Compound I-7]
100 to 1000 nM

Item COc1ccc(CN2C(=O)C3(CCCCC3)Oc3ccc(C(=O)NO)cc32)cc1 [Compound I-158] : provide IC50
100 to 1000 nM

Specify IC50 for O=C(NO)c1ccc2c(c1)N(CCOc1ccc(C(F)(F)F)cc1)C(=O)CO2 [Compound I-55] and stop.
25 to 100 nM

====

Target: Full length human recombinant HDAC8 protein (Homo sapiens, UniProt Q9BY41)
Construct: Full length human recombinant HDAC8 protein was expressed in baculoviral system; made in house
Sequence (Q9BY41 1-377): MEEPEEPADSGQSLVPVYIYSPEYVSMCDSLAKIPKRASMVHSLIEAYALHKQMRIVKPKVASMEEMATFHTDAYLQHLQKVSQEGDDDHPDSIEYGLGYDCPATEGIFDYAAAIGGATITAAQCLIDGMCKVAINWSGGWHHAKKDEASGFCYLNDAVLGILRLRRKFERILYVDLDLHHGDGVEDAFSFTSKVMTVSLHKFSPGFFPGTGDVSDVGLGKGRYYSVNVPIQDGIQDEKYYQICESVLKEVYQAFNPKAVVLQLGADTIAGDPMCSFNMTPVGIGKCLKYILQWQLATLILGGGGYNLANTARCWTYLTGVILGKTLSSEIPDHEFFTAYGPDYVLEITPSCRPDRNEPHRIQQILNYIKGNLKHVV
Test: In vitro histone deacetylase assay: enzymatic HDAC8 electrophoretic mobility shift assay
Type: biochemical
Conditions: electrophoretic mobility shift assay; enzyme 1 nM; 2 μM fluorescently labeled peptide substrate RHKK(Ac)-NH2; 25° C.; 12 concentrations; read-out: HDAC8 IC50
Description: The enzymatic HDAC8 assay was performed using electrophoretic mobility shift assay. Full length human recombinant HDAC8 protein was expressed in baculoviral system and purified by affinity chromatography. […] The terminated assay plates were analyzed on LabChip® 3000 microfluidic electrophoresis instrument (Perkin Elmer/Caliper Life Sciences). The fluorescence intensity of the electrophoretically separated de-acetylated product and substrate peptide was measured. […]
Observable: IC50

Before answering, review these 5 worked examples.
CCn1c(CN2C(=O)COc3ccc(C(=O)NO)cc32)nc2ccc(Cl)cc21    0.1 to 1 µM
COc1ccc(CN2C(=O)C(C)Oc3cc(C(=O)NO)ccc32)cc1 (centres unmarked)    0.1 to 1 µM
CC1COc2ccc(C(=O)NO)cc2N1Cc1ccccc1 (centres unmarked)    0.025 to 0.1 µM
O=C(NO)c1ccc2c(c1)N(Cc1ccc(-c3ncco3)cc1)C(=O)CO2    < 0.025 µM
Cc1ccc2oc(CN3C(=O)COc4ccc(C(=O)NO)cc43)nc2c1    0.025 to 0.1 µM

Now for a further compound.
Give recorded IC50. "CC(C)(C)c1ccc(CN2C(=O)COc3ccc(C(=O)NO)cc32)cc1"
< 0.025 µM

====

molecular target: Recombinant N-terminal GST tag full-length human HDAC8 (Homo sapiens); construct: Recombinant N-terminal GST tag full-length human HDAC8; experiment: HDAC8 probe binding assay, time resolved fluorescence (TRF) format; settings: compounds grouped by IC50 range (Table 2)
pIC50: −log10 of the molar value.
Observable: pIC50

Supply reported pIC50 belonging to this compound: N#Cc1ccc(CN2C(=O)COc3ccc(C(=O)NO)cc32)c(Cl)c1 [Compound I-372]
≥ 7.60

Return value of pIC50 for input O=C(NO)c1ccc2c(c1)N(Cc1cccc(Cl)c1)C(=O)CO2 [Compound I-143] , no commentary.
≥ 7.60

Please report the measured pIC50 for COc1ccc(CN2C(=O)COc3c(F)cc(C(=O)NO)cc32)cc1 [Compound I-163]
7.00 to 7.60

====

Molecular target: Recombinant N-terminal GST tag full-length human HDAC8 (Homo sapiens)
Construct: Recombinant N-terminal GST tag full-length human HDAC8
Sequence (Q9BY41 1-377): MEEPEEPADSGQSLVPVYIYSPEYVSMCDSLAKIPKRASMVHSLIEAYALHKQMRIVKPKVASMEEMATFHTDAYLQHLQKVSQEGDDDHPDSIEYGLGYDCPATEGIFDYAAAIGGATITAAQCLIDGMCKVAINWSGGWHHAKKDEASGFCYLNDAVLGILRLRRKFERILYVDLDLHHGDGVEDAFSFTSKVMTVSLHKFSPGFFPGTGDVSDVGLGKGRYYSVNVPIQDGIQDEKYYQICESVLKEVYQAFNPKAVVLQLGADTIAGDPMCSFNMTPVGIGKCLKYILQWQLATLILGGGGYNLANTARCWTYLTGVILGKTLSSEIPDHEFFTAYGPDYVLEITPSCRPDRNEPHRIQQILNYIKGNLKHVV
Assay: HDAC8 probe binding assay, time resolved fluorescence (TRF) format
Conditions: compounds grouped by IC50 range (Table 2)
Reported IC50 values are given for each entry in this list.

Consider the reported IC50 for these compounds:
O=C(NO)c1ccc2c(c1)N(Cc1cc(F)cc(C(F)(F)F)c1)C(=O)CO2    25 to 100 nM
O=C(NO)c1ccc2c(c1)N(Cc1cccc(F)c1)C(=O)CO2    ≤ 25 nM
CN1C(=O)CCc2cc(CN3C(=O)COc4ccc(C(=O)NO)cc43)ccc21    ≤ 25 nM
CCC1Oc2ccc(C(=O)NO)cc2N(Cc2ccc(OC)cc2)C1=O (stereo not drawn)    ≤ 25 nM
COc1ccc(CN2C(=O)COc3ccc(C(=O)NO)cc32)cc1C(F)(F)F    ≤ 25 nM
O=C(NO)c1ccc2c(c1)N(Cc1ccc(-n3cccn3)cc1)C(=O)CO2    ≤ 25 nM
COc1ccc(CN2CC(C(=O)NC3CCOCC3)Oc3ccc(C(=O)NO)cc32)cc1 (stereo not drawn)    25 to 100 nM
O=C(NO)c1ccc2c(c1)N(Cc1cccc(Cl)c1Cl)C(=O)CO2    ≤ 25 nM

Give reported IC50 value for "O=C(NO)c1ccc2c(c1)N(Cc1ccc(Cl)c(C(F)(F)F)c1)C(=O)CO2"
≤ 25 nM

Quote IC50 reported for "O=C(NO)c1ccc2c(c1)N(Cc1cc(Cl)ccc1Cl)C(=O)CO2" please.
≤ 25 nM

Provide IC50 value for the following compound: "CN1CCCc2cc(CN3C(=O)COc4ccc(C(=O)NO)cc43)ccc21"
25 to 100 nM

Return the recorded IC50 value; entry: "O=C(NO)c1ccc2c(c1)N(Cc1ccc(OC3CCC3)cc1)C(=O)CO2"
≤ 25 nM

====

# maps each entry to its pIC50
Target: Recombinant N-terminal GST tag full-length human HDAC8 (Homo sapiens)
Construct: Recombinant N-terminal GST tag full-length human HDAC8
Sequence (Q9BY41 1-377): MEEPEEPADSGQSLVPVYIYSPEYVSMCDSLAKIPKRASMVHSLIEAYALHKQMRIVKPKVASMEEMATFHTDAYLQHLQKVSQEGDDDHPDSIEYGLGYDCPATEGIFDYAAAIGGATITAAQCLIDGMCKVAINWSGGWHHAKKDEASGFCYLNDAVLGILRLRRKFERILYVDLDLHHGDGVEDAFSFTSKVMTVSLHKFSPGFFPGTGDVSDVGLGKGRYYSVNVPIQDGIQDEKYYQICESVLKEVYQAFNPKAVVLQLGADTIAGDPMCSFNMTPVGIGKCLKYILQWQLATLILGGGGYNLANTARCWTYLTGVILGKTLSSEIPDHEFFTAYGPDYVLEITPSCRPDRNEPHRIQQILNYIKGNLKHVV
Assay: HDAC8 probe binding assay, time resolved fluorescence (TRF) format
Conditions: compounds grouped by IC50 range (Table 2)
pIC50: −log10 of the molar value.

Observe how each entry below is paired with its result.
N#Cc1ccc(Cl)c(CN2C(=O)COc3ccc(C(=O)NO)cc32)c1 [Compound I-373]    ≥ 7.60
O=C(NO)c1ccc2c(c1)N(Cc1ccn3ccnc3c1)C(=O)CO2 [Compound I-338]    ≥ 7.60
COc1ccc(CN2C(=O)COc3ccc(C(=O)NO)cc32)cn1 [Compound I-332]    ≥ 7.60
CN1CCCC[C@H]1CN1C(=O)COc2ccc(C(=O)NO)cc21 (stereo in doubt) [Compound I-47]    < 6.00
COc1cnc2sc(CN3C(=O)COc4ccc(C(=O)NO)cc43)nc2c1 [Compound I-208]    ≥ 7.60
CC1Oc2ccc(C(=O)NO)cc2N(Cc2ccc(S(C)(=O)=O)cc2)C1=O (centres unmarked) [Compound I-152]    ≥ 7.60
CC1(C)Oc2ccc(C(=O)NO)cc2N(Cc2cccc(Oc3ccccc3)c2)C1=O [Compound I-225]    7.00 to 7.60
COCCOc1ccc(CN2C(=O)COc3ccc(C(=O)NO)cc32)cc1 [Compound I-196]    ≥ 7.60

Report measured pIC50 on Recombinant N-terminal GST tag full-length human HDAC8 (Homo sapiens); entry: CN(C)c1ccc(CN2C(=O)COc3ccc(C(=O)NO)cc32)cc1 [Compound I-361]
≥ 7.60

Give pIC50 for O=C(NO)c1ccc2c(c1)N(Cc1ccn(-c3ccccc3)n1)C(=O)CO2 [Compound I-222] tested on Recombinant N-terminal GST tag full-length human HDAC8 (Homo sapiens).
≥ 7.60

Give pIC50; test system Recombinant N-terminal GST tag full-length human HDAC8 (Homo sapiens); compound O=C(NO)c1ccc2c(c1)N(Cc1ccccc1Cl)C(=O)CO2 [Compound I-147]
7.00 to 7.60
